experiment_notes: Cytotoxicity against human A549 cells after 48 hrs by MTT assay
Assay type: cell-based
run_conditions: read-out: LC50
measured_attribute: log10(CC50 at 48 h) (log10 of the value in µM)
Base-10 log of CC50 at 48 h, unit µM.

COc1cccc2c1C(=O)c1c(O)c3c(c(O)c1C2=O)C[C@@](O)(C(=O)CO)C[C@@H]3O[C@H]1C[C@H](N)[C@H](O)[C@H](C)O1 [DOXORUBICIN] = 0.23

query: Provide log10(CC50 at 48 h) value for the following compound: `COc1ccc(C=C2OC(=O)C([C@@H](O)c3cc(Br)c(OC)c(Br)c3)=C2c2cc(Br)c(O)c(Br)c2)cc1`
result: 1.59

query: Provide log10(CC50 at 48 h) value for the following compound: O=C1O/C(=C\c2cc(Br)c(O)c(Br)c2)C(c2ccc(O)c(Br)c2)=C1C(=O)c1cc(Br)c(O)c(Br)c1 [CADIOLIDE E]
result: 1.61

query: Provide log10(CC50 at 48 h) value for the following compound: COC(=O)C1=C(c2cc(Br)c(O)c(Br)c2)C(=O)OC1=C(c1cc(Br)c(O)c(Br)c1)c1cc(Br)c(O)c(Br)c1 [CADIOLIDE I]
result: 1.72

query: Provide log10(CC50 at 48 h) value for the following compound: `COC(=O)C(C(=O)c1cc(Br)c(O)c(Br)c1)=C(C(=O)OC)c1cc(Br)c(O)c(Br)c1`
result: 1.28
